- Target Desc: T1, Recombinant Human DLL4 (delta-like protein 4) (human, UniProt Q9NR61 27-524)
- T1 construct: Bought recombinant human DLL4 (R&D Systems Cat#1506-D4/CF); also called rHuman DLL4
- Assay Text: ECL (MSD) multispot binding assay, antigen spotted on plate, Fab in solution;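 further: purified Fab incubated 1 h at 20 °C, detected via TAG-labelled antibody electrochemiluminescence, antigen spot compared with the blank in the same well, ratio at least 4 counted as hit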
Record form. Attribute: Signal/Blank. Fill in for each entry.
Please respond with just the number, no unit label.

Query block: Look up Signal/Blank: Fab VH1-46_IGHD6-6*01_IGHJ1*01 S102A/S103P/S104F/H111F (APFF) & L6_IGKJ1*01 S31R (Fab, V domains shown, Fab made in E. coli; The constant parts (CH1 with His6 and Flag tags from plasmid A, kappa CL from plasmid C) are not added here; also called APFF & S31R) VH: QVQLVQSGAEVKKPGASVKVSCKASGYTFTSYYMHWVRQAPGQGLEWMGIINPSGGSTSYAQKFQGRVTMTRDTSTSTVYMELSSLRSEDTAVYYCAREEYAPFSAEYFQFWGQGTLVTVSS VL: EIVLTQSPATLSLSPGERATLSCRASQSVSRYLAWYQQKPGQAPRLLIYDASNRATGIPARFSGSGSGTDFTLTISSLEPEDFAVYYCQQRSNWPPWTFGQGTKVEIKR
Result block: 558

Query block: Okay, and Fab VH1-46_IGHD6-6*01_IGHJ1*01 S102A/S103P/S104F/H111F (APFF) & L6_IGKJ1*01 S31E (Fab, V domains shown, Fab made in E. coli; The constant parts (CH1 with His6 and Flag tags from plasmid A, kappa CL from plasmid C) are not added here; also called APFF & S31E) VH: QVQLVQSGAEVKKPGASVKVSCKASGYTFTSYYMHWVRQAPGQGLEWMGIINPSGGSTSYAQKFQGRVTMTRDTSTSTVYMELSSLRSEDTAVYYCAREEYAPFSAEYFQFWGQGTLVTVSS VL: EIVLTQSPATLSLSPGERATLSCRASQSVSEYLAWYQQKPGQAPRLLIYDASNRATGIPARFSGSGSGTDFTLTISSLEPEDFAVYYCQQRSNWPPWTFGQGTKVEIKR ?
Result block: 517

Query block: Okay, and Fab VH1-46_IGHD6-6*01_IGHJ1*01 S102A/S103P/S104F/H111F (APFF) & L6_IGKJ1*01 S30Q (Fab, V domains shown, Fab made in E. coli; The constant parts (CH1 with His6 and Flag tags from plasmid A, kappa CL from plasmid C) are not added here; also called APFF & S30Q) VH: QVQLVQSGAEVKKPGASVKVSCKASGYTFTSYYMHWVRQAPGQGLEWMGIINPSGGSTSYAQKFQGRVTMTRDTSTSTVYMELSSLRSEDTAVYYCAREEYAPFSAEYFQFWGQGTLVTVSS VL: EIVLTQSPATLSLSPGERATLSCRASQSVQSYLAWYQQKPGQAPRLLIYDASNRATGIPARFSGSGSGTDFTLTISSLEPEDFAVYYCQQRSNWPPWTFGQGTKVEIKR ?
Result block: 602
